Target: Mucosal addressin cell adhesion molecule 1/Integrin alpha-4/beta-7 (Homo sapiens, UniProt P13612+P26010+Q13477)
Sequence (P13612 whole entry): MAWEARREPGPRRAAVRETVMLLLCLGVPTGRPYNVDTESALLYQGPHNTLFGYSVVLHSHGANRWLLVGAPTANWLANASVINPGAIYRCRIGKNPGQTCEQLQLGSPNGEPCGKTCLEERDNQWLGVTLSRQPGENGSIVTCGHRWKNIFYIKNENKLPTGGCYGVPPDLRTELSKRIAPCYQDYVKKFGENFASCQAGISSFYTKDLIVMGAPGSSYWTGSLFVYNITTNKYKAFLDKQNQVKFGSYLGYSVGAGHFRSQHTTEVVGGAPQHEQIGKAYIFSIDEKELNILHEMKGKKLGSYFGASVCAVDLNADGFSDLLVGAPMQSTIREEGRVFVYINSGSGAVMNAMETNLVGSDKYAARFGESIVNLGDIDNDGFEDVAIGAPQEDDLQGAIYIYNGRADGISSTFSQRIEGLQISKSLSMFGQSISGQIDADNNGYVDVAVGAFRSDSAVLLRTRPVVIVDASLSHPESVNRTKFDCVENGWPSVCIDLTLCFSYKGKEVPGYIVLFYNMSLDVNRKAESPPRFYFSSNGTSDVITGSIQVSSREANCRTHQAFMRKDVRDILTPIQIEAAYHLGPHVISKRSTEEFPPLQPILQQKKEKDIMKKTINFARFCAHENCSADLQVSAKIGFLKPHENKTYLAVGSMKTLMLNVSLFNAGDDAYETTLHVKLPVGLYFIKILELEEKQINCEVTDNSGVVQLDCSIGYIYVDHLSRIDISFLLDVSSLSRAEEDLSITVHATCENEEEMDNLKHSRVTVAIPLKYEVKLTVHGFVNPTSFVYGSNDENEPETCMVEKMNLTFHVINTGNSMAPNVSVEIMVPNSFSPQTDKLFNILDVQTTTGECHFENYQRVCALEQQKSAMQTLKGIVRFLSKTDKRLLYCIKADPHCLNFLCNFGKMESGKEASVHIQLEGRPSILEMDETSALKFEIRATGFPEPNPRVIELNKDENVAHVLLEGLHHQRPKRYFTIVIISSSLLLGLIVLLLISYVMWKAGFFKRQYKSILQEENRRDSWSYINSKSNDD
Sequence (P26010 whole entry): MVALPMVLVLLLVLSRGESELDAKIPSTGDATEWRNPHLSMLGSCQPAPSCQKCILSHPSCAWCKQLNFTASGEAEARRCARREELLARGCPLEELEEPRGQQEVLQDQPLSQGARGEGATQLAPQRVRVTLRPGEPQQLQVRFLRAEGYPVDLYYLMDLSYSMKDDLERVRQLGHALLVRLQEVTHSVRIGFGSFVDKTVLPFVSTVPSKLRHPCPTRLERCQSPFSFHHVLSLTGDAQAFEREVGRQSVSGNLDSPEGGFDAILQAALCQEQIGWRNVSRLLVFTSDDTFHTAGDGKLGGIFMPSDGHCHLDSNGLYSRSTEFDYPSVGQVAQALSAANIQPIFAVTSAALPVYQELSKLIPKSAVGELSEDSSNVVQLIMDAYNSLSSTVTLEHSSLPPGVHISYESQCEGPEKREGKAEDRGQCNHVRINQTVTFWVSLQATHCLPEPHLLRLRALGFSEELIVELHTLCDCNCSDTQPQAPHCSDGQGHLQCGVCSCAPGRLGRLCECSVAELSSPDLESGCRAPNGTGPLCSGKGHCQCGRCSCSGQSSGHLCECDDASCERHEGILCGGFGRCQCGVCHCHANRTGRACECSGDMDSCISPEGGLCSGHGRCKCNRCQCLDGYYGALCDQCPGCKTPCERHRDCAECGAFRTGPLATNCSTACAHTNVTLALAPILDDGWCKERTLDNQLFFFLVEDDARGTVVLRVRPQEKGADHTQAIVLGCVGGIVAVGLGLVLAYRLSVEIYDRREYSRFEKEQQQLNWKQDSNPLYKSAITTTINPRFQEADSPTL
Sequence (Q13477 whole entry): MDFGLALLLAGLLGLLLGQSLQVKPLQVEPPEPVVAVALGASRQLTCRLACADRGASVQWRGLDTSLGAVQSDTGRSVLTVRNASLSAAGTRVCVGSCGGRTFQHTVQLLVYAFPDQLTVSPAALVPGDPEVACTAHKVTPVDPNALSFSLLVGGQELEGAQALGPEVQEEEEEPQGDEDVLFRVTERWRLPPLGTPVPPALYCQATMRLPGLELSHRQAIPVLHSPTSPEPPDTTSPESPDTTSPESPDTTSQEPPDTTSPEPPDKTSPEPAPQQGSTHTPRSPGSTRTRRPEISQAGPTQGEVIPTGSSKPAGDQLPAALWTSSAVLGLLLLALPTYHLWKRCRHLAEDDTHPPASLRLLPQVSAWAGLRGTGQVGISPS
Assay: BINDING INHIBITION ACTIVITY EVALUATION TEST
value.type: IC50 (nM)

[[record]]
smiles_notation = "COC(=O)[C@H](Cc1ccc(-n2c(=O)n(C)c3cccc(Cl)c32)cc1)NC(c1ccccc1)(c1ccccc1)c1ccccc1"
value_type = "IC50"
readout_unit = "nM"
measurement = 1.19

[[record]]
smiles_notation = "COC(=O)[C@H](Cc1ccc(-n2c(=O)n(C3CC3)c3ccc(Cl)cc32)cc1)NC(c1ccccc1)(c1ccccc1)c1ccccc1"
value_type = "IC50"
readout_unit = "nM"
measurement = 5.67

[[record]]
smiles_notation = "COC(=O)[C@H](Cc1ccc(N2C(=O)C3(CC3)c3cc(F)c(F)cc32)cc1)NC(c1ccccc1)(c1ccccc1)c1ccccc1"
value_type = "IC50"
readout_unit = "nM"
measurement = 14.3

[[record]]
smiles_notation = "COC(=O)[C@H](Cc1ccc(N2C(=O)C3(CC3)c3cccc(F)c32)cc1)NC(c1ccccc1)(c1ccccc1)c1ccccc1"
value_type = "IC50"
readout_unit = "nM"
measurement = 6.21

[[record]]
smiles_notation = "COC(=O)[C@H](Cc1ccc(N2C(=O)C3(CC3)c3cccnc32)cc1)NC(c1ccccc1)(c1ccccc1)c1ccccc1"
value_type = "IC50"
readout_unit = "nM"
measurement = 0.75

[[record]]
smiles_notation = "COC(=O)[C@H](Cc1ccc(N2C(=O)C3(CC3)c3cccc(Cl)c32)cc1)NC(=O)c1c(Cl)cc(N2CCC(N3CCOCC3)CC2)cc1Cl"
value_type = "IC50"
readout_unit = "nM"
measurement = 23.8


====

Molecular target: Mucosal addressin cell adhesion molecule 1/Integrin alpha-4/beta-7 (Homo sapiens, UniProt P13612+P26010+Q13477)
Test: BINDING INHIBITION ACTIVITY EVALUATION TEST
pIC50: −log10 of the molar value.
Classify by measured pIC50: Satisfied if it is equal to or exceeds 8, Not satisfied if it is smaller.

[[record]]
smiles_notation = "COC(=O)[C@H](Cc1ccc(-n2c(=O)n(C3CCN(C)CC3)c3cccc(Cl)c32)cc1)NC(c1ccccc1)(c1ccccc1)c1ccccc1"
class_name = "Not satisfied"

[[record]]
smiles_notation = "COC(=O)[C@H](Cc1ccc(N2C(=O)C3(CC3)c3cccc(OC)c32)cc1)NC(c1ccccc1)(c1ccccc1)c1ccccc1"
class_name = "Satisfied"

[[record]]
smiles_notation = "COC(=O)[C@H](Cc1ccc(-n2c(=O)n(C)c3cc(Cl)c(Cl)cc32)cc1)NC(c1ccccc1)(c1ccccc1)c1ccccc1"
class_name = "Satisfied"

[[record]]
smiles_notation = "COC(=O)[C@H](Cc1ccc(-n2c(=O)n(C)c3cccc(Cl)c32)cc1)NC(=O)c1c(Cl)cc(Cl)cc1Cl"
class_name = "Not satisfied"


====

Molecular target: Mucosal addressin cell adhesion molecule 1/Integrin alpha-4/beta-7 (Homo sapiens, UniProt P13612+P26010+Q13477)
Assay: BINDING INHIBITION ACTIVITY EVALUATION TEST
pIC50: −log10 of the molar value.
Classify by measured pIC50: satisfied if it is equal to or exceeds 8, not satisfied if it is smaller.

[[record]]
compound = "COC(=O)[C@H](Cc1ccc(N2C(=O)C3(CC3)c3cccc(Cl)c32)cc1)NC(c1ccccc1)(c1ccccc1)c1ccccc1"
class_name = "satisfied"

[[record]]
compound = "COC(=O)[C@H](Cc1ccc(N2C(=O)C3(CC3)c3cc(F)c(N(C)C)cc32)cc1)NC(c1ccccc1)(c1ccccc1)c1ccccc1"
class_name = "satisfied"

[[record]]
compound = "COC(=O)[C@H](Cc1ccc(-n2c(=O)n(C3CC3)c3cc(Cl)ccc32)cc1)NC(c1ccccc1)(c1ccccc1)c1ccccc1"
class_name = "not satisfied"

[[record]]
compound = "COC(=O)[C@H](Cc1ccc(-n2c(=O)n(C)c3cc(N(C)C)ccc32)cc1)NC(c1ccccc1)(c1ccccc1)c1ccccc1"
class_name = "satisfied"

[[record]]
compound = "COC(=O)[C@H](Cc1ccc(N2C(=O)C3(CC3)c3cccc(Cl)c32)cc1)NC(=O)c1c(Cl)cc(N2CC3CC2CO3)cc1Cl (stereo partly specified)"
class_name = "satisfied"

